# Tested on: Breast (MCF-7)
# METHOD NOTES: Proliferation inhibition assay (sulforhodamin B uptake), breast cells
# Format: cell-based
# TEST CONDITIONS: concentration 1 × 10^−5 molar
RECORDED METRIC: Percent Growth in 48 Hours, Breast (MCF-7) (%)
Write it as a number; the unit % goes unstated.

Ask: Which Percent Growth in 48 Hours, Breast (MCF-7) value belongs to CO[C@H](C(=O)[C@@H](O)[C@@H](C)O)[C@@H]1Cc2cc3cc(OC4CC(OC5CC(O)C(O)C(C)O5)C(O)C(C)O4)c(C)c(O)c3c(O)c2C(=O)[C@H]1OC1CC(OC2CC(OC3CC(C)(O)C(O)C(C)O3)C(O)C(C)O2)C(O)C(C)O1 (stereo partly shown) [Mithramycin] ?
Result: 12

Ask: Can you share its Percent Growth in 48 Hours, Breast (MCF-7)? I mean this compound: COC(C(O)C(C)=O)[C@@H]1Cc2cc3cc(OC4CC(OC5CC(O)C(O)C(C)O5)C(O)C(C)O4)c(C)c(O)c3c(O)c2C(=O)[C@H]1OC1CC(OC2CC(O)C(O)C(C)O2)C(O)C(C)O1 (stereo partly shown) [Demycarosyl-Mithramycin-SK, Demycarosyl-mithramycin-SK]
Result: 22

Ask: Look at this compound and give its reported Percent Growth in 48 Hours, Breast (MCF-7). COC(C(O)C(C)=O)[C@@H]1Cc2cc3cc(OC4CC(OC5CC(O)C(O)C(C)O5)C(O)C(C)O4)c(C)c(O)c3c(O)c2C(=O)[C@H]1OC1CC(OC2CC(OC3CC(C)(O)C(O)C(C)O3)C(O)C(C)O2)C(O)C(C)O1 (stereo partly shown) [Mithramycin-SK, mithramycin-SK]
Result: 0.2
